Reference source: PubChem BioAssay (NCI)

test system: ACHN renal; test: NCI tumour cell line growth inhibition, 48 h
Threshold check on TGI: at or above 10 µM gives fulfilled, strictly below gives not fulfilled.

INSERT INTO assay_data (compound, target_system, answer_label) VALUES
  ('Clc1ccc(C2=NCON=C2c2ccc(Cl)cc2)cc1', 'ACHN renal', 'fulfilled'),
  ('C=C1CC/C=C(\C)CC[C@H](C(=C)C)[C@@H](O)/C=C(/CO)CCC1O (stereo partly specified)', 'ACHN renal', 'fulfilled'),
  ('Cc1ccc(NCCN(C)C)c2c(=O)c3cc(O)ccc3sc12', 'ACHN renal', 'not fulfilled'),
  ('Cc1cc(C)nc(NS(=O)(=O)c2ccc(Nc3c4ccccc4nc4ccc(C(=O)Nc5ccc(S(=O)(=O)N=C(N)N)cc5)cc34)cc2)n1', 'ACHN renal', 'fulfilled'),
  ('CCCCCCCCCCCCCCCC(=O)OCC1OC(n2cc(F)c(=O)[nH]c2=O)C(NC(=O)N(CCCl)N=O)C(O)C1O (stereo unspecified)', 'ACHN renal', 'fulfilled'),
  ('CCOc1ccc(Nc2nc(-c3c(C)nc4ncccn34)cs2)cc1', 'ACHN renal', 'fulfilled'),
  ('Cc1ccc(-n2cc(-c3ccc(Cl)cc3)c3c(=N)n(N)cnc32)cc1', 'ACHN renal', 'fulfilled'),
  ('COc1ccc(C23OCC(Cc4cc(OC)c(OC)cc42)C3CO)cc1OC (stereo unspecified)', 'ACHN renal', 'fulfilled'),
  ('NC(=O)c1ncn(C2OC(CO)C(O)C2O)c1N (stereo unspecified)', 'ACHN renal', 'fulfilled'),
  ('COc1cc2c(cc1OCCCOc1ccc(-c3cc4ccccc4c4ccccc34)cc1)N=C[C@@H]1CCCN1C2=O', 'ACHN renal', 'not fulfilled'),
  ('Cc1cc(C)n2c(nc3ccccc32)c1C#N', 'ACHN renal', 'fulfilled');
